# measured.target: Cytochrome P450 1A2 (Homo sapiens) (UniProt P05177)
# Sequence (P05177 whole entry, looked up): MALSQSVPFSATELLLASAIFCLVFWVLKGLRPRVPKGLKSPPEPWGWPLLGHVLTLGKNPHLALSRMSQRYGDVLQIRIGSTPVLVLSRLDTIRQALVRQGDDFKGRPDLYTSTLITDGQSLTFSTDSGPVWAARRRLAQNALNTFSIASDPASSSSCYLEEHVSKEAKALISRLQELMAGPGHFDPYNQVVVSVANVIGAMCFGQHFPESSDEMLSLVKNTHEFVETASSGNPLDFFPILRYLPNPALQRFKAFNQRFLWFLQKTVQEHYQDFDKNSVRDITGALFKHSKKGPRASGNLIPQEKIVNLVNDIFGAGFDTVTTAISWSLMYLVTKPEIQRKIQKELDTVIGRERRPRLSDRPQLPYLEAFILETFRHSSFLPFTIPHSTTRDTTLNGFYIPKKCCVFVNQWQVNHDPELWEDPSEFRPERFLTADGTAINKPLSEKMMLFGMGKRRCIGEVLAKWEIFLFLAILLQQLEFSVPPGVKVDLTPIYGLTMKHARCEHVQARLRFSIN
# assay.overview: p450-cyp1a2 (AID 410); note: potency is the fitted concentration of half-maximal effect
# test.context: recombinant CYP1A2, luciferin-ME demethylation, luminescence; series mostly up to 57 µM
Inconclusive results are not listed. Calls of active or inactive are those of the source. Calls come from the whole dose curve.
observation.type: Potency

Consider the following illustrative entries.
{"molecule.smiles": "CC[C@]1(O)C[C@H]2CN(CCc3c([nH]c4ccccc34)[C@](C(=O)OC)(c3cc4c(cc3OC)N(C=O)[C@H]3[C@@](O)(C(=O)OC)[C@H](OC(C)=O)[C@@]5(CC)C=CCN6CC[C@]43[C@H]65)C2)C1", "endpoint.value": "inactive"}
{"molecule.smiles": "CCCC[C@H]1C[C@@H]1[C@@H]1N(P(=O)(c2ccccc2)c2ccccc2)[C@](CO)(c2ccccc2)CC12CC2", "endpoint.value": "inactive"}
{"molecule.smiles": "C[C@@H](C(=O)NCc1cccc2ccccc12)[C@H]1C[C@]1(C)[C@H](NC(=O)OCc1ccccc1)c1ccccc1", "endpoint.value": "25.1 µM (active)"}
{"molecule.smiles": "CCCCC#Cc1ccccc1CC(=O)Nc1ccccc1", "endpoint.value": "2.51 µM (active)"}
{"molecule.smiles": "CCCN(CCc1ccccc1)[C@H]1CCc2c(O)cccc2C1", "endpoint.value": "12.6 µM (active)"}
{"molecule.smiles": "COC(=O)[C@@]1(Cc2ccccc2)[C@H]2c3cc(C(=O)N4CCCC4)n(CCc4ccccn4)c3C[C@H]2CN1C(=O)c1ccccc1", "endpoint.value": "inactive"}
{"molecule.smiles": "COC(=O)[C@H]1C[C@@H]1[C@H](NC(=O)c1cc(C)on1)c1ccccc1", "endpoint.value": "15.8 µM (active)"}

Could you now look at the following molecule, please?
Query: Given C[C@@H](C(=O)NCCc1c[nH]c2ccccc12)[C@H]1C[C@]1(C)[C@H](NC(=O)OCc1ccccc1)c1ccccc1 , respond with its Potency.
Reply: 15.8 µM (active)

* * *

# Tested on: C2A
# assay.overview: qHTS profiling for inhibitors of Plasmodium falciparum proliferation (AID 504749); note: nearly all actives have a fitted effect of over 60% in size
# test.context: P. falciparum in erythrocytes, SYBR Green DNA, 72 h; series mostly up to 28.7 µM
# Description: NIH National Institute of Allergy and Infectious Diseases [NIAID] NIH Chemical Genomics Center [NCGC] […] Because mature erythrocytes lack DNA, only Plasmodium-derived DNA is detected. NCGC Assay Protocol Summary: The SYBR Green viability assay was adapted from a method described previously (Plouffe et al., 2008). […] The following morning, fluorescence intensity at 485(14) nm excitation and 535(25) nm emission wavelengths was measured on an EnVision (Perkin Elmer) plate reader. […]
Results filed as inconclusive are left out. Calls of active or inactive are those of the source. Calls follow the shape of the dose curve; as a rule, active = well fitted inhibition curve with a large enough effect; inconclusive = small, poorly fitted or top-dose-only effect; inactive = flat fitted curve, though single readings scatter.
The categories you may choose from are yes (1) (active), no (0) (inactive)

Solved cases below.
{"compound": "CO/N=C(/C(=O)N[C@@H]1C(=O)N2C(C(=O)O)=C(CSC(=O)c3ccco3)CSC12)c1csc(N)n1 (stereo not given in full)", "measured.target": "C2A", "category": "no (0)"}
{"compound": "COC(c1ccccc1)(c1ccccc1)C(Oc1nc(C)cc(C)n1)C(=O)O (stereo not given)", "measured.target": "C2A", "category": "no (0)"}
{"compound": "C[C@H]1[C@@H](OC(=O)CCC(=O)O)OC2OC3(C)CC[C@H]4[C@H](C)CC[C@@H]1[C@@]24OO3 (stereo not given in full)", "measured.target": "C2A", "category": "yes (1)"}
{"compound": "CCN(CC)C(=O)Nc1ccc(OC[C@H](O)CNC(C)(C)C)c(C(C)=O)c1", "measured.target": "C2A", "category": "no (0)"}

Lab note: next compound to report on.
Query: Entry CC[C@@]1(O)C[C@H](O[C@H]2C[C@@H](N(C)C)[C@@H](O[C@H]3C[C@@H](O)[C@@H](O[C@H]4CCC(=O)[C@@H](C)O4)[C@@H](C)O3)[C@@H](C)O2)c2c(cc3c(c2O)C(=O)c2c(O)cccc2C3=O)[C@H]1C(=O)OC : call = ?
Reply: yes (1)

* * *

# assay.overview: Cell Viability - NIH 3T3 (AID 541);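 note: cells exposed to compound for 40 hours; nearly all actives have a fitted effect of over 25% in size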
# test.context: NIH 3T3 cell viability, qHTS
Records with an inconclusive call do not appear. Active and inactive are the calls of the source. The call rests on the fitted dose curve; in most records, active means well fitted cell-killing curve with a large enough effect; inconclusive means small, poorly fitted or top-dose-only effect; inactive means flat fitted curve, though single readings scatter.
Could you please pick one outcome from this set? active, inactive

{"compound": "CCCCCC/C(C=O)=C\\c1ccccc1", "category": "inactive"}

Query: Check the results log: what was the call for O=C(/C=C/c1ccc(O)c(O)c1)OC1C[C@](O)(C(=O)O)C[C@@H](O)[C@H]1O (stereo partly specified) ?
Reply: inactive

Query: Record request — test call for C=C(C)c1ccccc1
Reply: inactive

Query: Could you please tell me the result logged for CCCCCCCC[N+](CCCCCCCC)(CCCCCCCC)CCCCCCCC in this assay?
Reply: active

Query: // param item: O=C(OCC(COC(=O)c1ccccc1)(COC(=O)c1ccccc1)COC(=O)c1ccccc1)c1ccccc1 ; yields the recorded call
Reply: inactive

Query: Assay result, entry c1ccc2c(c1)ccc1cc3c(ccc4ccccc43)cc12 — outcome?
Reply: inactive

Query: Outcome? O=Cc1ccc(Cl)c(Cl)c1
Reply: inactive

Query: Status in this test for CNc1ccc(O)cc1 ?
Reply: active

Query: Could you please tell me the result logged for CC(=O)Nc1ccc(C(=O)CCl)cc1 in this assay?
Reply: active

Query: Look up the recorded call for C=CC(=O)OCC(CO)(COC(=O)C=C)COC(=O)C=C in this test.
Reply: active

Query: Assay outcome for CN1[C@H]2CC(OC(=O)[C@H](CO)c3ccccc3)C[C@H]1[C@H]1O[C@H]12 (stereo partly specified) : what was it?
Reply: inactive

* * *

# assay.overview: Cell Viability - LYMP2-001 (AID 921);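 note: cells exposed to compound for 24 h at 37 °C; nearly all actives have a fitted effect of over 70% in size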
# test.context: LYMP2-001 lymphoblastoid cell viability; series mostly up to 92.2 µM
Inconclusive results are not listed. Activity calls are given as the source filed them. Calls come from the whole dose curve; as a rule, active = well fitted cell-killing curve with a large enough effect; inconclusive = small, poorly fitted or top-dose-only effect; inactive = no such curve, though single readings can be large or run the other way.
The reply should be one of these categories: True (active), False (inactive)

// known answers, use as guide
{"molecule": "Nc1ccc2cc3ccccc3cc2c1", "category": "False"}
{"molecule": "O=Cc1ccc(Cl)c(Cl)c1", "category": "False"}
{"molecule": "O=C(/C=C/c1ccc(O)c(O)c1)OC1C[C@](O)(C(=O)O)C[C@@H](O)[C@H]1O (some centres undefined)", "category": "False"}

Query: What outcome does the record of this test show for CCCCCCCC[N+](CCCCCCCC)(CCCCCCCC)CCCCCCCC ?
Reply: True

Query: // return assay outcome for CCCCCC/C(C=O)=C\c1ccccc1
Reply: False

Query: Please share the test call associated with CN1[C@H]2CC(OC(=O)[C@H](CO)c3ccccc3)C[C@H]1[C@H]1O[C@H]12 (some centres undefined) .
Reply: False

Query: # lookup: test call for O=[N+]([O-])c1cc([N+](=O)[O-])c2ccc(S(=O)(=O)O)cc2c1O
Reply: False

Query: What call does the record list for CC(=O)Nc1ccc(C(=O)CCl)cc1 ?
Reply: True

Query: Recorded test outcome, item Cc1cc(Nc2ccc(O)cc2)ccc1N
Reply: True

* * *

# Tested on: CP250
# assay.overview: qHTS profiling for inhibitors of Plasmodium falciparum proliferation (AID 504749); note: nearly all actives have a fitted effect of over 60% in size
# test.context: P. falciparum in erythrocytes, SYBR Green DNA, 72 h; series mostly up to 28.7 µM
Records with an inconclusive call do not appear. Active and inactive are the calls of the source. Calls come from the whole dose curve; as a rule, active = well fitted inhibition curve with a large enough effect; inconclusive = small, poorly fitted or top-dose-only effect; inactive = flat fitted curve, though single readings scatter.
Field 'call' accepts label 1 (active), label 0 (inactive)

Look over these answered cases.
{"molecule": "NC(=O)OC[C@@H]1[C@H](NC(=O)/C(=N/OCC(=O)O)c2csc(N)n2)C(=O)N1S(=O)(=O)O", "category": "label 0"}
{"molecule": "O=C(OC[C@@H]1O[C@@](O)(COC(=O)c2cccnc2)[C@H](OC(=O)c2cccnc2)[C@H]1OC(=O)c1cccnc1)c1cccnc1", "category": "label 0"}

Query: Outcome logged for OCC1O[C@H](Oc2ccc(O)cc2)C(O)C(O)C1O (some centres undefined) in this assay:
Reply: label 0

Query: Record request — test call for CCC(C(=O)O)C1OC(C(C)C(O)C(C)C(=O)C(CC)C2OC3(C=CC(O)C4(CCC(C)(C5CCC(O)(CC)C(C)O5)O4)O3)C(C)CC2C)C(C)CC1C (centres undefined)
Reply: label 1

* * *

# System: AA1029
# assay.overview: qHTS profiling for inhibitors of Plasmodium falciparum proliferation (AID 504749); note: nearly all actives have a fitted effect of over 60% in size
# test.context: P. falciparum in erythrocytes, SYBR Green DNA, 72 h; series mostly up to 28.7 µM
# Description: NIH National Institute of Allergy and Infectious Diseases [NIAID] NIH Chemical Genomics Center [NCGC] […] Because mature erythrocytes lack DNA, only Plasmodium-derived DNA is detected. NCGC Assay Protocol Summary: The SYBR Green viability assay was adapted from a method described previously (Plouffe et al., 2008). […] The following morning, fluorescence intensity at 485(14) nm excitation and 535(25) nm emission wavelengths was measured on an EnVision (Perkin Elmer) plate reader. […]
Inconclusive results are not listed. Calls of active or inactive are those of the source. The call rests on the fitted dose curve; in most records, active means well fitted inhibition curve with a large enough effect; inconclusive means small, poorly fitted or top-dose-only effect; inactive means flat fitted curve, though single readings scatter.
Choose the fitting class; nothing outside active, inactive is accepted.

Examples with answers:
{"molecule": "CC(=O)CC(c1ccccc1)C1C(=O)Oc2ccccc2C1=O (configuration not stated)", "category": "inactive"}
{"molecule": "C/C=C1/NN(CCCN2CCN(c3cccc(Cl)c3)CC2)C(=O)N1CCOc1ccccc1", "category": "inactive"}
{"molecule": "CC(=O)O[C@]1(C(C)=O)CCC2C3CCC4=CC(=O)CCC4(C)C3(F)C(O)CC21C (some centres not stated)", "category": "inactive"}
{"molecule": "C=C1/C(=C\\C=C2/CCC[C@]3(C)[C@@H]([C@H](C)/C=C/[C@@H](O)C4CC4)CC[C@@H]23)C[C@@H](O)C[C@@H]1O", "category": "inactive"}
{"molecule": "CO[C@H]1OC2O[C@@]3(C)CC[C@H]4[C@H](C)CC[C@@H]([C@H]1C)[C@@]24OO3 (some centres not stated)", "category": "active"}

Query: How was Cc1cn([C@H]2CC(F)[C@@H](CO)O2)c(=O)[nH]c1=O (some centres not stated) classified in this test?
Reply: inactive

Query: I'd appreciate the recorded outcome for Nc1nc(F)nc2c1ncn2[C@@H]1O[C@H](CO)[C@@H](O)[C@H]1O from this test.
Reply: inactive

Query: Identify the outcome logged in this assay for the molecule shown: O=C(O)C(O)c1ccccc1 (configuration not stated)
Reply: inactive

Query: So what was the verdict on CNc1cc(OC)c(C(=O)N[C@@H]2CCN(Cc3ccccc3)[C@H]2C)cc1Cl in this test?
Reply: active

Query: Write down the call the test reported for this molecule. Item: COc1ccc(C(=O)/C(Br)=C/C(=O)O)cc1
Reply: inactive
